Assay: HDX of amide protons by NMR in DMSO-d6:D2O (8:2)
Settings: HDX by NMR, 20% D2O in DMSO-d6
Starred links: 1 amine or outer side, 2 acyl side, 3 side chain; linkers in the order of their positions; H or OH if unused. Non-standard residues stand in square brackets, D forms with d. Residues, ends and D or L forms follow the SMILES beside them. X1 = CC(C)C[C@H](NC(=S)[C@H](Cc1ccc(O)cc1)N[*:1])C(=O)[*:2]; X2 = CC(C)C[C@H](NC(=S)[C@@H](CC(C)C)N[*:1])C(=O)[*:2]; X3 = CC(C)C[C@H](N[*:1])C(=S)N[C@H](CC(C)C)C(=O)[*:2]
MEASURED_PARAMETER: Half-life of Tyr5 amide proton (HDX) (min)

See these solved cases before continuing.
CC(C)C[C@@H]1NC(=O)[C@@H](CC(C)C)NC(=O)[C@H](CC(C)C)NC(=S)[C@H](Cc2ccc(O)cc2)NC(=O)[C@H]2CCCN2C(=O)[C@H](CC(C)C)NC1=O [10e] (cyclo(LL[dP][X1][dL]))	35
CC(C)C[C@@H]1NC(=O)[C@H](Cc2ccc(O)cc2)NC(=O)[C@H]2CCCN2C(=O)[C@H](CC(C)C)NC(=O)[C@H](CC(C)C)NC(=O)[C@@H](CC(C)C)NC1=O [compound 10, cyclo(-D-Leu^1-Leu-Leu-D-Pro-Tyr-Leu^6-)] (cyclo(LL[dP]YL[dL]))	49

I. CC(C)C[C@@H]1NC(=O)[C@@H](CC(C)C)NC(=S)[C@H](CC(C)C)NC(=O)[C@H](Cc2ccc(O)cc2)NC(=O)[C@H]2CCCN2C(=O)[C@H](CC(C)C)NC1=O [10f] (cyclo(LL[dP]Y[X3]))
II. CC(C)C[C@@H]1NC(=O)[C@H](Cc2ccc(O)cc2)NC(=O)[C@H]2CCCN2C(=O)[C@H](CC(C)C)NC(=O)[C@H](CC(C)C)NC(=S)[C@@H](CC(C)C)NC1=O [10a] (cyclo(L[dP]YL[X2]))
Compare I and II by numeric Half-life of Tyr5 amide proton (HDX) and name the larger one. Reply with the label of the item you choose.
I
